assay: Quantitative High-Throughput drug screen in 47 multiple myeloma cell lines against the NCATS MIPE library collection: Karpas25_ECACC cell viability assay (AID 1918968; further: nearly all actives have a fitted effect of over 35% in size); details: Karpas25 myeloma viability, CellTiter-Glo ATP, 48 h; series mostly up to 45.8 µM
Records with an inconclusive call do not appear. Active and inactive are the calls of the source. The call rests on the fitted dose curve; in most records, active means well fitted cell-killing curve with a large enough effect; inconclusive means small, poorly fitted or top-dose-only effect, or effect the other way; inactive means no such curve, though single readings can be large or run the other way.
# output must be one of active, inactive

compound=Oc1ccc(C2=Cc3ccc(O)cc3OC2)cc1 assigned_category=active
compound=O=C(OCC#CCSc1nnc(-c2cccc3ccccc23)o1)c1cc2ccccc2s1 assigned_category=inactive

-- ask Which outcome was entered for the compound "NC(=O)c1cnc(-c2ccc(C3(N)CCC3)cc2)c(-c2ccccc2)c1" in this test?
-- reply active

-- ask Which outcome was entered for the compound "CC(C)C[C@H](CC(=O)O)C(=O)N[C@@H](Cc1c[nH]c2ccccc12)C(=O)N[C@@H](C)c1ccccc1" in this test?
-- reply inactive

-- ask Which outcome was entered for the compound "COc1ccc(-n2c(C)c([N+](=O)[O-])c3ccc(O)cc32)cc1" in this test?
-- reply active

-- ask Which outcome was entered for the compound CCOC(=O)C1=C(N)Oc2ccc(Br)cc2C1C(C#N)C(=O)OCC (stereo unspecified) in this test?
-- reply active

-- ask Which outcome was entered for the compound "O=c1ccn([C@@H]2O[C@H](CO)[C@H](O)[C@H]2O)c(=O)[nH]1" in this test?
-- reply inactive

-- ask Which outcome was entered for the compound "CCCCCCCCCCCC1=C(O)C(=O)C=C(O)C1=O" in this test?
-- reply active

----------
system: WaGa; assay: qHTS assay to identify novel small-molecules to repurpose for Merkel cell carcinoma treatment (AID 1296009); conditions: MCC and control cell lines, CellTiter-Glo viability, 72 h; series mostly up to 46 µM; further: nearly all actives have a fitted effect of over 60% in size; further: potency means the concentration at half of the fitted maximal effect
Records with an inconclusive call do not appear. Activity calls are given as the source filed them. Calls come from the whole dose curve; as a rule, active = well fitted inhibition curve with a large enough effect; inconclusive = small, poorly fitted or top-dose-only effect; inactive = flat fitted curve, though single readings scatter.
Readout: Potency

compound=Nc1ncnc2c1ncn2[C@@H]1O[C@H](CO)C[C@@H]1O result="14.8 µM (active)"
compound="Cc1ccccc1C(C(=O)NC1CCCCC1)N(C(=O)Cn1ccnc1C)c1cccc(F)c1 (centres undefined)" result=inactive
compound=CC(C)(C)OC(=O)N[C@H]1CCCCCC=C[C@@H]2C[C@@]2(C(=O)NS(=O)(=O)C2CC2)NC(=O)[C@@H]2C[C@@H](OC(=O)N3Cc4cccc(F)c4C3)CN2C1=O result=inactive
compound="C=C1C(=O)[C@@]23C(CC[C@@H]1[C@H]2O)[C@@]12CO[C@]3(O)[C@@H](O)[C@@H]1C(C)(C)CC[C@@H]2O (some centres undefined)" result="0.833 µM (active)"

----------
assay: qHTS Assay for Identifying Gametocytocidal Compounds (AID 743244);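 further: on the % scale 0 is the no-effect control and ±100 the full control effect; actives lower the fluorescent signal which means gametocytes are killed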; details: P. falciparum 3D7 stage III-V gametocytes, alamarBlue, 72 h; hits give low values
Inconclusive results are not listed.
Readout: max response (%)
# value in %; strip the unit string

These recorded examples may help you get a feel for the data.
compound="CN(C)CCC(c1ccccc1)c1ccccn1 (stereo not given)" readout_number=15.2
compound=OC[C@H]1O[C@@H](n2cnc3c2NC=NC[C@@H]3O)C[C@H]1O readout_number=12.6
compound="COc1ccc(C2CC(c3ccccc3)=NN2c2ccc(S(N)(=O)=O)cc2)cc1 (stereo not given)" readout_number=-8.6
compound=O=c1[nH]cnc2c1ncn2[C@H]1CC[C@@H](CO)O1 readout_number=-6.96
compound=Clc1ccc(-c2nc3sccn3c2C=NOCc2ccc(Cl)c(Cl)c2)cc1 readout_number=17.5

-- ask For "CC(C)(C)C(=O)Oc1ccc2c(c1)nc(NC(=O)c1cccc([N+](=O)[O-])c1)n2CCCO" , what is its reported max response?
-- reply 2.9

-- ask For "CC/C(=C(\c1ccccc1)c1ccc(OCCN(C)C)cc1)c1ccccc1" , what is its reported max response?
-- reply 10

----------
assay: Primary qHTS for small molecule stabilizers of the endoplasmic reticulum resident proteome: Secreted ER Calcium Modulated Protein (SERCaMP) assay (AID 1508630); details: SH-SY5Y GLuc-SERCaMP (Gaussia luciferase released on ER calcium loss) secretion, thapsigargin, luminescence; series mostly up to 38.4 µM; further: on the % scale 0 is the no-effect control and ±100 the full control effect
Results filed as inconclusive are left out. Activity calls are given as the source filed them. Calls follow the shape of the dose curve; as a rule, active = well fitted inhibition curve with a large enough effect; inconclusive = small, poorly fitted or top-dose-only effect; inactive = no such curve, though single readings can be large or run the other way.
Readout: outcome

These recorded examples may help you get a feel for the data.
molecule=Nc1ncnc2ccccc12 result=inactive
molecule=CC(C)(C)C(=O)Oc1ccc2c(c1)nc(NC(=O)c1cccc([N+](=O)[O-])c1)n2CCCO result=inactive
molecule="COCCOC(=O)C1=C(C)NC2=C(C(=O)CC(c3ccccc3OC)C2)C1c1cccc(O)c1 (configuration not stated)" result=inactive
molecule=COc1ccc(-c2nc(N3CCOCC3)c3sc(CN(C)c4ncc(C(=O)NO)cn4)cc3n2)cn1 result=inactive
molecule=CC(=O)Nc1ccc([C@H](C)C(=O)Nc2ncc(C(C)C)s2)cc1 result=inactive

-- ask For Cc1ccccc1C(C(=O)NC1CCCCC1)N(C(=O)Cn1ccnc1C)c1cccc(F)c1 (configuration not stated) , what is its reported outcome?
-- reply inactive

-- ask For "COc1ccc(-c2cc(=O)c3c(O)cc(O)cc3o2)cc1O" , what is its reported outcome?
-- reply inactive

-- ask For C[C@]12CCC3c4ccc(O)cc4CCC3C1CCC2=O (some centres not stated) , what is its reported outcome?
-- reply inactive

----------
biological target: Flap endonuclease 1 (Homo sapiens); experiment: qHTS Validation Assay for the Inhibitors of Human Flap endonuclease 1 (FEN1) (AID 488816); settings: FEN1 nuclease activity, fluorogenic DNA substrate; series mostly up to 57.1 µM; further: on the % scale 0 is the no-effect control and ±100 the full control effect
Calls of active or inactive are those of the source. The call rests on the fitted dose curve; in most records, active means well fitted inhibition curve with a large enough effect; inconclusive means small, poorly fitted or top-dose-only effect; inactive means flat fitted curve, though single readings scatter.
Readout: outcome

These recorded examples may help you get a feel for the data.
compound=CCCCCN(C)CCC(O)(P(=O)(O)O)P(=O)(O)O readout=outcome result=inactive
compound=O=c1c(-c2ccc(O)cc2)coc2cc(O)ccc12 readout=outcome result=inactive
compound=CCCNC(=O)NS(=O)(=O)c1ccc(Cl)cc1 readout=outcome result=inactive
compound=Clc1ccc(Cn2c(CN3CCCC3)nc3ccccc32)cc1 readout=outcome result=inactive
compound=CCN1CCC[C@H]1CNC(=O)c1cc(S(N)(=O)=O)ccc1OC readout=outcome result=inactive
compound=C[N+](C)(C)CCCCCC[N+](C)(C)C readout=outcome result=inactive
compound=CCN(CC)CCOC(=O)c1ccc(N)cc1 readout=outcome result=inactive
compound=CC/C(=C(\c1ccccc1)c1ccc(OCCN(C)C)cc1)c1ccccc1 readout=outcome result=inactive

-- ask For "O=c1cc(-c2ccc(O)cc2)oc2cc(O)cc(O)c12" , what is its reported outcome?
-- reply inactive

-- ask For "O=C1NC(=O)C(c2ccccc2)(c2ccccc2)N1" , what is its reported outcome?
-- reply inactive

-- ask For "NC(N)=Nc1nc(CSCC/C(N)=N/S(N)(=O)=O)cs1" , what is its reported outcome?
-- reply inactive

-- ask For "NCCS" , what is its reported outcome?
-- reply inactive

-- ask For Cc1cccc(C)c1OCC(C)N (stereo not drawn) , what is its reported outcome?
-- reply inactive

----------
tested on: HeLa; assay: Primary qHTS to identify gynecologic anti-cancer compounds using libraries of approved drugs and bioactive compounds (AID 1345084); details: Gynecologic cancer cell panel viability, ATPlite luminescence, 48 h; series mostly up to 57.5 µM; further: nearly all actives have a fitted effect of over 55% in size
Inconclusive results are not listed. Active and inactive are the calls of the source. Calls follow the shape of the dose curve; as a rule, active = well fitted cell-killing curve with a large enough effect; inconclusive = small, poorly fitted or top-dose-only effect, or effect the other way; inactive = flat fitted curve, though single readings scatter.
Readout: outcome

molecule=O=C(Nc1cccc(Br)c1)c1cccc(S(=O)(=O)N2CCCCCC2)c1 system_name=HeLa result=inactive
molecule=CO[C@H]1C=CO[C@@]2(C)Oc3c(C)c(O)c4c(O)c(c5c(c4c3C2=O)NC2(CCN(CC(C)C)CC2)N=5)=NC(=O)C(C)=CC=C[C@H](C)[C@H](O)[C@@H](C)[C@@H](O)[C@@H](C)[C@H](OC(C)=O)[C@H]1C system_name=HeLa result=inactive
molecule=CC(C)[C@H](CO)Nc1nc(Nc2ccc(C(=O)O)c(Cl)c2)c2ncn(C(C)C)c2n1 system_name=HeLa result=inactive
molecule="CN(C)CCC(c1ccccc1)c1ccccn1 (stereo not drawn)" system_name=HeLa result=inactive
molecule="C=C1C(=O)[C@@]23C(CC[C@@H]1[C@H]2O)[C@@]12CO[C@]3(O)[C@@H](O)[C@@H]1C(C)(C)CC[C@@H]2O (stereo partly drawn)" system_name=HeLa result=inactive
molecule=C[N+](C)(C)CCCCCC[N+](C)(C)C system_name=HeLa result=inactive
molecule="CC(C)(C)c1ccc(C(O)CCCN2CCC(C(O)(c3ccccc3)c3ccccc3)CC2)cc1 (stereo not drawn)" system_name=HeLa result=inactive

-- ask For "NC(=O)c1cccc(-c2cc(Nc3ccc(OC(F)(F)F)cc3)ncn2)c1" , what is its reported outcome?
-- reply inactive

----------
test system: Tov-21-G; assay: Primary qHTS to identify gynecologic anti-cancer compounds using libraries of approved drugs and bioactive compounds (AID 1345084); conditions: Gynecologic cancer cell panel viability, ATPlite luminescence, 48 h; series mostly up to 57.5 µM; further: nearly all actives have a fitted effect of over 55% in size
Records with an inconclusive call do not appear. Activity calls are given as the source filed them. The call rests on the fitted dose curve; in most records, active means well fitted cell-killing curve with a large enough effect; inconclusive means small, poorly fitted or top-dose-only effect, or effect the other way; inactive means flat fitted curve, though single readings scatter.
# output must be one of true (active), false (inactive)

substance_smiles=CC(C)OC(=O)C(C)(C)Oc1ccc(C(=O)c2ccc(Cl)cc2)cc1 system_name=Tov-21-G assigned_category=false

-- ask Which outcome was entered for the compound "COc1cc(N2CCC(N3CCN(C)CC3)CC2)ccc1Nc1ncnc(Nc2ccccc2S(=O)(=O)C(C)C)n1" in this test?
-- reply true

-- ask Which outcome was entered for the compound "O=C1NC(=O)C(c2ccccc2)(c2ccccc2)N1" in this test?
-- reply false

-- ask Which outcome was entered for the compound "Cc1ccc(Nc2cc(-c3cccc(N4C(=O)c5ccccc5C4=O)c3)ncn2)cc1NS(C)(=O)=O" in this test?
-- reply false

-- ask Which outcome was entered for the compound "CCn1c(C(=O)N(C2CC2)C2CC2)cc2c3c(ncn3C)c(Nc3cc(C)n(C)n3)nc21" in this test?
-- reply false
